Values were extracted from paper PMC11642016.

System: PANC-1 cells
Test: CellTiter-Glo luminescent cell viability assay, PANC-1
Conditions: Homo sapiens, PANC-1, read-out: PANC-1 IC50 values, individual replicates n1-n3, IC50 independently determined for each replicate measurement (Supplement S.6)
Quantity: IC50 (µM)
Report the figure in µM without appending any unit label.

Prompt line: Specify measured IC50 for Cc1ccccc1CN1C(=O)C2=C(CCN(Cc3ccccc3)C2)N2CCN=C12 [ONC201, reference compound] .
Response line: 3.22

Prompt line: Specify measured IC50 for NCC#Cc1ccc(CN2C(=O)C3=C(CCN(Cc4ccc(-n5cc(-c6ccccc6)nn5)cc4)C3)N3CCN=C23)cc1 [I/B, reference compound] .
Response line: 8.43
